Target: G protein (Smg p21), molecular weight of 22,000, purified from bovine brain (Bos taurus)
Sequence (P62833 1-181 limits assumed): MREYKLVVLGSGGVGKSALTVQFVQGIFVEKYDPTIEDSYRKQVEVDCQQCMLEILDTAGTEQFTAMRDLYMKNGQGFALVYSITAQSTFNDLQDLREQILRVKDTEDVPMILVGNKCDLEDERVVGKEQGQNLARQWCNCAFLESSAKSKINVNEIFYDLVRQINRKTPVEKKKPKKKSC
readout: pKd
Field pKd (float): negative decimal logarithm of the concentration in molar.

Requested read-out: pKd. Entry: Nc1nc2c(ncn2[C@@H]2O[C@H](COP(=O)(O)OP(=O)(O)OP(=O)(O)O)[C@@H](O)[C@H]2O)c(=O)[nH]1 [GTP, guanosine-5-triphosphate] 7.52
